// data source = PubChem BioAssay

- Assay name: CREB reporter modulators without forskolin, primary screen, cell-based, PC12, CRE-LacZ reporter, unstimulated (AID 1145)
- Condition details: no forskolin, luminescence, 4.5 h, higher = more signal, called active from +8 up or from −8 down
z-score below 0.5 gives NOT MET; z-score at or above it gives MET.

Observe how each entry below is paired with its result.
• CC[C@H](C)C(=O)O[C@H]1CC[C@]2(C)C3=C(CCC2C1(C)C)[C@]1(C)CC[C@H]([C@H](C)CCCC(C)C)[C@@]1(C)CC3 (some centres undefined) = MET
• COC(=O)[C@@]1(Cc2ccc(F)cc2)[C@H]2c3cc(C(=O)N(C)C)n(CCO)c3C[C@H]2CN1C(=O)c1ccccc1 = MET
• C[C@@H](OCc1ccccc1)C1NC(=O)[C@@]23C(=O)N[C@@H](Cc4ccccc4)C2[C@H](C)[C@@]2(C)O[C@H]2C3/C=C/C/C=C\CNC(=O)[C@H](Cc2ccccc2)NC1=O (some centres undefined) = MET
• COc1ccc(NN2C(C(O)c3ccc(OC)cc3)C=CC3C(=O)N(C4CCCCC4)C(=O)C32)cc1 (centres undefined) = NOT MET
• O=C1O[C@@H](c2ccccc2)[C@@H](c2ccccc2)N2[C@@H](c3ccc(O)cc3)[C@]3(C(=O)Nc4ccc(C#CC5=CCCCC5)cc43)[C@@H](C(=O)N3CCCCCCC3)[C@H]12 = NOT MET

Query :: Determine whether this compound has z-score no lower than 0.5: COCCOC(=O)N1C(=O)[C@@]2(c3cc(C#CC4(O)CCCCCC4)ccc31)[C@H](C(=O)NC[C@H](O)c1ccccc1)[C@H]1C(=O)O[C@H](c3ccccc3)[C@H](c3ccccc3)N1[C@@H]2c1ccc(O)cc1
Result :: NOT MET

Query :: Determine whether this compound has z-score no lower than 0.5: CC=CC(O)C1C=CC2C(=O)N(C)C(=O)C2N1NC(=O)OC(C)(C)C (centres undefined)
Result :: MET

* * *

- System: glycogen synthase kinase-3 (GSK3A per assay name; protocol says GSK3B)
- Assay name: GSK3 binders on small-molecule microarrays, primary screen, biochemical, small-molecule microarray, 635 nm fluorescence, GSK3A (AID 1103); further: the record names both GSK3A and GSK3B
- Condition details: small-molecule microarray binding, fluorescence 635 nm; higher = more signal
Measurement label: composite z-score
Would you mind answering with just the numeric figure?

Query :: Which composite z-score is listed for C=CCC(OC(C)=O)[C@@H]1[C@@H](N(Cc2ccc(-c3ccccc3)cc2)C(=O)c2ccc(-c3ccccc3)cc2)c2cc(OCCCO)ccc2N1C(=O)c1ccc2ccccc2n1 (stereo partly drawn) ?
Result :: 0.213

Query :: Which composite z-score is listed for COCCOC(=O)N1C(=O)[C@@]2(c3cc(C#CC4(O)CCCCCC4)ccc31)[C@H](c1ccc(OCCO)cc1)N1[C@H](c3ccccc3)[C@H](c3ccccc3)OC(=O)[C@H]1[C@@H]2C(N)=O ?
Result :: 1.31

Query :: Which composite z-score is listed for O=C1O[C@@H](c2ccccc2)[C@@H](c2ccccc2)N2[C@@H](c3ccc(OCCO)cc3)[C@]3(C(=O)Nc4ccc(C#CCCO)cc43)[C@@H](C(=O)Nc3nc4ccccc4s3)[C@H]12 ?
Result :: 1.29

* * *

- Assay name: small-molecule binders of probe aLefty1, primary screen, biochemical, small-molecule microarray, 635/667 nm fluorescence (AID 1153);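 further: score merges spot fluorescence with signal-to-noise ratio from the scanned slide images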
- Condition details: higher = more signal
Measurement label: composite z-score

The following compounds have reported results that may help.
- CCCC=C(CCC)[C@@H](NC(=O)c1ccccc1)c1ccc(C(=O)OC)cc1: 1.29
- CC(C)C[C@H]1NC(=O)[C@H](Cc2ccccc2)NC(=O)[C@@]23C(=O)N[C@@H](Cc4ccccc4)C2[C@H](C)[C@@]2(C)O[C@H]2C3/C=C/C/C=C\CNC1=O (some centres undefined): -0.145
- [N-]=[N+]=NCc1ccccc1C[C@]1(C(=O)N2CCOCC2)N=C(c2ccc(OCCCO)cc2)O[C@H]1c1ccccc1CN=[N+]=[N-]: 1.15
- CCOC(=O)C1=CC[C@@H](c2ccc(F)cc2)N(S(=O)(=O)c2ccc(C)cc2)[C@H]1c1ccc([N+](=O)[O-])cc1: -0.0946
- C=CCNC(=O)[C@@H]1[C@H]2C(=O)O[C@H](c3ccccc3)[C@H](c3ccccc3)N2[C@H](c2ccc(O)cc2)[C@@]12C(=O)Nc1ccc(C#CC3(O)CCCCCC3)cc12: -0.196
- C=CC(CO)NC(=O)OCC1c2ccccc2-c2ccccc21 (centres undefined): -0.188

Query :: Which composite z-score is listed for COCCOC(=O)N1C(=O)[C@@]2(c3cc(C#CCC(C(=O)OC)C(=O)OC)ccc31)[C@H](c1ccc(OCCO)cc1)N1[C@H](c3ccccc3)[C@H](c3ccccc3)OC(=O)[C@H]1[C@@H]2C(=O)N1CCCCCCC1 ?
Result :: 2.81

Query :: Which composite z-score is listed for COCCOC(=O)N1C(=O)[C@@]2(c3cc(C#CC4=CCCCC4)ccc31)[C@H](C(=O)N1CCN(c3ncccn3)CC1)[C@H]1C(=O)O[C@H](c3ccccc3)[C@H](c3ccccc3)N1[C@@H]2c1ccccc1OCCO ?
Result :: 0.297

Query :: Which composite z-score is listed for COC(=O)[C@@]1(Cc2ccc(OC)cc2)[C@@H]2[C@@H](CC(=O)[C@H]2CC(=O)C(=O)N2CCCC2)CN1C(=O)c1ccccc1 ?
Result :: 2.14

Query :: Which composite z-score is listed for [N-]=[N+]=NCc1ccccc1[C@@H]1OC(c2ccc(OCCCO)cc2)=N[C@]1(Cc1ccccc1)C(=O)NCc1ccccc1 ?
Result :: 0.219

Query :: Which composite z-score is listed for COC(=O)[C@]1(CO)N=C(c2ccc(OCCCO)cc2)O[C@@H]1c1ccccc1CN=[N+]=[N-] ?
Result :: -0.0626
